# target.or.system: d-enCas12a (Acidaminococcus sp., UniProt U2UMQ6 1-1307, E174R;S542R;K548R;D908A;E993A;D1235A)
# experiment: Spec-seq (native PAGE EMSA with sequencing of bound and unbound); 25 mM Tris-HCl pH 7.4, 150 mM KCl, 5 mM MgCl2, 10% glycerol, 1 mM DTT, 40 ng/uL salmon sperm DNA; 400 nM Cas12a, 480 nM crRNA, 50 nM library, 37 C 1 h; native PAGE at room temperature; high values mean tight binding;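 note: relative affinity from the bound to unbound sequence frequency ratio in Spec-seq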
# condition.notes: protein: recombinant
measurement.name: binding signal (lnKA)
Answer in lnKA, number only, no unit symbol.

INSERT INTO results (binder, numeric_readout) VALUES
  ('ATCG (dsDNA) DNA 1: GCTATCTAGTGCTCAGTACGCACTGATCGAGGAAACTTCTGGCAGGACCAGGTCATGAGATCGGAAGAGCACACGTCTGAACTCCAGTCA DNA 2: TGACTGGAGTTCAGACGTGTGCTCTTCCGATCTCATGACCTGGTCCTGCCAGAAGTTTCCTCGATCAGTGCGTACTGAGCACTAGATAGC RNA: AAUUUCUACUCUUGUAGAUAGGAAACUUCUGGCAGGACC', -3.44);

The reported value for AGAG (dsDNA) DNA 1: GCTATCTAGTGCTCAGTACGCACTGAGAGAGGAAACTTCTGGCAGGACCAGGTCATGAGATCGGAAGAGCACACGTCTGAACTCCAGTCA DNA 2: TGACTGGAGTTCAGACGTGTGCTCTTCCGATCTCATGACCTGGTCCTGCCAGAAGTTTCCTCTCTCAGTGCGTACTGAGCACTAGATAGC RNA: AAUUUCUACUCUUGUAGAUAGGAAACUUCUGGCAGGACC in terms of binding signal is -5.79
